# Test system: NCI-H23 lung
# TEST: NCI-60 one-dose screen, 48 h (100 = growth as untreated, 0 = no growth, -100 = all killed)
# PARTICULARS: 10 µM unless noted
This is part of a sample that, as a whole, favours compounds with a hit. Of some 83,000 tested, about 20% had one in any assay.
Dear colleague, classification is by growth, with ranges listed here: lower band: < 10%; central band: ≥ 10% and < 80%; upper band: ≥ 80%

The following molecules have reported results that may help.
>  <MOLECULE>
CN(Cc1cnc2nc(N)nc(N)c2n1)c1ccc(C(=O)NC(CCC(=O)O)C(=O)O)cc1 (configuration not stated)

>  <LABEL_CLASS>
central band

$$$$
>  <MOLECULE>
O=C(Nc1ccccc1)c1cc(Cl)ccc1O

>  <LABEL_CLASS>
central band

$$$$
>  <MOLECULE>
O=C1N[C@H]2[C@H](CS[C@H]2CCCCC(=O)N(CCP(c2ccccc2)c2ccccc2)CCP(c2ccccc2)c2ccccc2)N1

>  <LABEL_CLASS>
central band

$$$$
>  <MOLECULE>
Nc1ccc(SSc2ccc(N)cc2)cc1

>  <LABEL_CLASS>
upper band

$$$$
>  <MOLECULE>
Oc1ccc(/C=N/NC(=S)Nc2ccccc2)nc1

>  <LABEL_CLASS>
central band

$$$$

Which bin, given its growth, does `CCCCCCCCCCCCCCNCc1ccccc1` occupy? central band

Which bin, given its growth, does `S=C(NCCNC(=S)[S][Sn]([c]1ccccc1)([c]1ccccc1)[c]1ccccc1)[S][Sn]([c]1ccccc1)([c]1ccccc1)[c]1ccccc1` occupy? lower band

Which bin, given its growth, does `Oc1c(Br)c(Br)c(O)c(Br)c1Br` occupy? upper band

Which bin, given its growth, does `C=C(Cl)C(=NC(C)(C)C)Nc1ccccc1C` occupy? upper band

Which bin, given its growth, does `O=C1OCc2cccc3cccc1c23` occupy? upper band

Which bin, given its growth, does COC(=O)[C@@]12OC[C@]34[C@H]([C@@H](O)[C@@H]1O)[C@@]1(C)[C@H](O)C(=O)C=C(C)[C@@H]1C[C@H]3OC(=O)C(OC(C)=O)[C@@H]24 (some centres not stated) occupy? lower band

Which bin, given its growth, does `Cc1cc2nc(CS)[nH]c2cc1C` occupy? upper band

Which bin, given its growth, does `NC(=O)/C=C/C(=O)c1c(Cl)cccc1Cl` occupy? lower band

Which bin, given its growth, does `O=Nc1ccccc1N=O` occupy? central band

Which bin, given its growth, does `N#CSCC(=O)c1ccc(Cl)cc1` occupy? lower band

Which bin, given its growth, does `Cn1c2c(c3ccccc31)CCN1C[C@@H]3CCCC[C@H]3C[C@@H]21` occupy? central band
